- Test system: CAKI-1
- ASSAY_INFO: NCI tumour cell line growth inhibition, 48 h
The source made the active and inactive calls. No stated cut-off is given here; in the data, active = GI50 up to about 1.1 µM and inactive = higher.
Return exactly one item of active, inactive

(Q) Answer briefly: the call reported for O=S(=O)(O)c1cc(S(=O)(=O)O)c2cc(/N=N/c3c(O)ccc4ccccc34)ccc2c1 in this assay.
(A) inactive

(Q) Answer briefly: the call reported for CCc1c(Cc2cccc3ccccc23)n2c(nc1=O)SCC2OCCO (centres undefined) in this assay.
(A) inactive

(Q) Answer briefly: the call reported for O=C1Cc2c(-c3ccccc3)cc(-c3ccccc3)nc2-c2ccccc2N1 in this assay.
(A) inactive

(Q) Answer briefly: the call reported for COc1cc(S(=O)(=O)Nc2ccc(-c3csc(N4C(=O)CSC4c4ccccc4O)n3)cc2)ccc1Cl (centres undefined) in this assay.
(A) inactive

(Q) Answer briefly: the call reported for CC(=O)N1N=C(c2ccc3ccccc3c2O)CC1c1cccs1 (centres undefined) in this assay.
(A) inactive

(Q) Answer briefly: the call reported for COc1ccc2c(c1)-c1nn(CCN(C)C)c3ccc(C(=O)NCCCN(C)CCCNC(=O)c4ccc5c6c(c7cc(OC)ccc7nc46)NN5CCN(C)C)c(c13)N2 in this assay.
(A) active

(Q) Answer briefly: the call reported for C=C(c1ccccc1)C1ON(C)CCc2cc(OC)c(OC)cc21 (centres undefined) in this assay.
(A) inactive

(Q) Answer briefly: the call reported for COc1cccc(N2C(=O)/C(=C/c3ccc(N(CCC#N)CCC#N)cc3)N=C2c2cc([N+](=O)[O-])ccc2Cl)c1 in this assay.
(A) inactive

(Q) Answer briefly: the call reported for C=CCOC(=O)N1c2ccc(O)cc2[C@@]23O[C@@]24[C@@H]1C#C/C=C\C#C[C@]3(O)C(=O)C[C@@H]4C in this assay.
(A) inactive

* * *

For each of the compounds below, state its GI50.
- System: Hs-578T
- ASSAY_INFO: NCI tumour cell line growth inhibition, 48 h
The source made the active and inactive calls. No stated cut-off is given here; in the data, active = GI50 up to about 1.1 µM and inactive = higher.

(Q) Please give measured GI50 of the following entry: Cc1ccc2c(=O)cc(Cc3csc4ccccc34)[nH]c2n1
(A) 12.7 µM (inactive)

(Q) Please give measured GI50 of the following entry: COc1cc2c(cc1O)Cc1c-2[n+](C)cc2cc(OC)c(OC)cc12
(A) 60 µM (inactive)

(Q) Please give measured GI50 of the following entry: CC(=O)n1[nH]c(=O)n(-c2ccccc2)c1=O
(A) > 100 µM (inactive)

(Q) Please give measured GI50 of the following entry: O=S(=O)(c1cccc(C(F)(F)F)c1)N1c2ccccc2-n2cccc2C1c1cccnc1 (stereo not given)
(A) > 47 µM (inactive)

(Q) Please give measured GI50 of the following entry: CCCN(CCC)CCc1ccc(OC2=CCN(C)CC2)cc1
(A) 40.6 µM (inactive)

(Q) Please give measured GI50 of the following entry: O=C(Oc1ccccc1)N1c2ccccc2[C@@]23O[C@]24CCC[C@H]3C#C/C=C\C#C[C@H]14
(A) 16.6 µM (inactive)

(Q) Please give measured GI50 of the following entry: COc1ccc(NC=O)c(C(O)CCNC(C)=O)c1 (stereo not given)
(A) > 100 µM (inactive)

(Q) Please give measured GI50 of the following entry: CC(C)c1ccc(NC(=S)NC(=O)c2ccccc2)cc1
(A) 31.8 µM (inactive)

(Q) Please give measured GI50 of the following entry: CC(=O)OCC1OC(n2c(-c3ccc(C)cc3)cc(-c3ccccc3)c(C#N)c2=S)C(OC(C)=O)C(OC(C)=O)C1OC(C)=O (stereo not given)
(A) 65.2 µM (inactive)

(Q) Please give measured GI50 of the following entry: COc1ccc(-n2c(CCCC(=O)O)nc3c2C(=O)c2ccccc2C3=O)cc1
(A) > 100 µM (inactive)
